Tested on: HCV genotype 1b replicon
Experiment: HCV Replicon Assay
Assay type: cell-based
Conditions: Zluc (Huh-7-derived) cells, HCV genotype 1b replicon, luciferase reporter, 72 hours; read-out: HCV Replicon EC50
READOUT LABEL: EC50

Please give the measured EC50 for this molecule: CCOc1nc(N)nc2c1ncn2[C@@H]1O[C@@H]2COP(=O)(N[C@@H](C)C(=O)OC3CCCC3)O[C@H]2[C@@]1(C)F (single isomer, unassigned) [Compound 10 Diastereomer 2]
< 250 nM

Look up EC50: CCOc1nc(N)nc2c1ncn2[C@@H]1O[C@@H]2COP(=O)(N[C@@H](CC)COC(=O)C(C)C)O[C@H]2[C@@]1(C)F (single isomer, unassigned) [Compound 8 Diastereomer 2]
< 250 nM

// query EC50 value for entry CCOc1nc(N)nc2c1ncn2[C@@H]1O[C@@H]2COP(=O)(N[C@@H](C)C(=O)OC(C)C)O[C@H]2[C@@]1(C)O (single isomer, unassigned) [Compound 5 Diastereomer 2]
1000 to 10000 nM
